Hi there, I'd appreciate the recorded EC50 for every entry that follows.
# EXPERIMENTAL_TARGET: T1, ErbB3 (Rattus norvegicus, UniProt Q62799)
# T1 construct: forming the ErbB2/ErbB4 complex in cardiomyocytes and the ErbB2/ErbB3 complex in Schwann cells; endogenous in cells; host or cells: rat Schwann cells
# T1 sequence (Q62799 20-1339): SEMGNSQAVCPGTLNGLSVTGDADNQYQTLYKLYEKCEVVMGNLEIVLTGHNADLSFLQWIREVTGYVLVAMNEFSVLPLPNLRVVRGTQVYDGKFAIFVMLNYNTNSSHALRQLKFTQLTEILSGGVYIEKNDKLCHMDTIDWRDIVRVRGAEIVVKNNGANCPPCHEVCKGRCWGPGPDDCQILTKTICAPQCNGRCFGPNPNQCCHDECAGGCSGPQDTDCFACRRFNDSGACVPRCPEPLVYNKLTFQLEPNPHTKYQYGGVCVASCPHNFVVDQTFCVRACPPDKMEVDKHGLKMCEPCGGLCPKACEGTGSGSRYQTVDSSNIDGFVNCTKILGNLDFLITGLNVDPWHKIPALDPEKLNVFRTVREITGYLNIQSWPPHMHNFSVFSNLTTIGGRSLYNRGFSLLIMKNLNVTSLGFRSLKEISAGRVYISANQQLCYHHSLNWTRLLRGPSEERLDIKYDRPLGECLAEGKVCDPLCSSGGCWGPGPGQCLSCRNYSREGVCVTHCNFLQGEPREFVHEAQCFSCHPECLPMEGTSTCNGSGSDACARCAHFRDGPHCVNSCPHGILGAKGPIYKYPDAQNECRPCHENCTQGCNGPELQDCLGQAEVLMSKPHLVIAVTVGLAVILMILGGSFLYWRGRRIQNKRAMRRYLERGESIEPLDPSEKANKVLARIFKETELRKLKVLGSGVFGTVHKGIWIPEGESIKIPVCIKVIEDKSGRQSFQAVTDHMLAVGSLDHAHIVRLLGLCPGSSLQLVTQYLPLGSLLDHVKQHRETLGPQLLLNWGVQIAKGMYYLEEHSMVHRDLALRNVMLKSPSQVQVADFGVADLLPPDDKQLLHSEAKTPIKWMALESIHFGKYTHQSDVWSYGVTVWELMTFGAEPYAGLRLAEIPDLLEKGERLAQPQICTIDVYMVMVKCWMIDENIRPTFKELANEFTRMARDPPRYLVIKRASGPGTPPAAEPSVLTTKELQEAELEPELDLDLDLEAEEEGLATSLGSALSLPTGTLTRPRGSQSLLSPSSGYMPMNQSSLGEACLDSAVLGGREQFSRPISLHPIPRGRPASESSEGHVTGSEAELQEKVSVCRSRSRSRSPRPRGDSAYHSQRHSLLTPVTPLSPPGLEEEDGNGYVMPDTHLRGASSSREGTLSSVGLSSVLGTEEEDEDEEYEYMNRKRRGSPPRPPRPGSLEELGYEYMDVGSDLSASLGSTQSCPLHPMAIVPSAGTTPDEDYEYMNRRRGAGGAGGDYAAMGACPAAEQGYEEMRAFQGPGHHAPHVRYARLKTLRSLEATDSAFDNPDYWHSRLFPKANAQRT
# T1 sequence (P06494 23-1257 partner): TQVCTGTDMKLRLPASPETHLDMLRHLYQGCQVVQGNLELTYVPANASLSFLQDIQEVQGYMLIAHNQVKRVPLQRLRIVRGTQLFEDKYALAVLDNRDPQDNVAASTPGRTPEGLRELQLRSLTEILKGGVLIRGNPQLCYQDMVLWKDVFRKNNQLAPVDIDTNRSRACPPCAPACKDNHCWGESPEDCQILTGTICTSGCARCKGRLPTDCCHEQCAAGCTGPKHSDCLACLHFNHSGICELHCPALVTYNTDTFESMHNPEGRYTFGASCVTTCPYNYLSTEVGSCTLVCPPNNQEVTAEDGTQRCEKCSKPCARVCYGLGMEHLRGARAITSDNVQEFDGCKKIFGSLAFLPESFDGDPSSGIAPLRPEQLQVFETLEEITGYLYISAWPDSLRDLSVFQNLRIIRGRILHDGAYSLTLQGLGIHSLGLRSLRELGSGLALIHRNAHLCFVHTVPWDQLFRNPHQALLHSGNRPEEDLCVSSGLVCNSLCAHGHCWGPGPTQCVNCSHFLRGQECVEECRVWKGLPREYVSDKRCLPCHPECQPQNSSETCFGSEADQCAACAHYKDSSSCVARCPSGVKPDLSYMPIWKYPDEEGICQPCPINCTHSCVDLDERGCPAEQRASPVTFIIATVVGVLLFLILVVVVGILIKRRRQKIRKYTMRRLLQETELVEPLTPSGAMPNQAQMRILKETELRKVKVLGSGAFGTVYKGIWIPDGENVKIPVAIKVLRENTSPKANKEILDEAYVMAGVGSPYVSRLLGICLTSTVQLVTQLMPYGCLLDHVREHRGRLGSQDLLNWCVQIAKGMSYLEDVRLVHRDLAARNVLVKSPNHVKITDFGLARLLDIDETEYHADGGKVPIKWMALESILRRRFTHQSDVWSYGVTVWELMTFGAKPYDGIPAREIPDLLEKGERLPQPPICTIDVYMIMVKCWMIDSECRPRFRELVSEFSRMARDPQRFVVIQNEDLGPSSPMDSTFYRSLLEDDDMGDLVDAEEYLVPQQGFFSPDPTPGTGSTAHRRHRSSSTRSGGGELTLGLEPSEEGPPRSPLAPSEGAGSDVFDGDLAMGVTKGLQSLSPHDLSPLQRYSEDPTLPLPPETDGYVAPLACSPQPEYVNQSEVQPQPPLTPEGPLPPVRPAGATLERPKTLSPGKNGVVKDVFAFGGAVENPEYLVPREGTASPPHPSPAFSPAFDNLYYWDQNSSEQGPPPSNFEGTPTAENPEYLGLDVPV
# TEST: In vitro phosphorylation of Akt in rat Schwann cells
# Format: cell-based
# STUDY_CONDITIONS: Akt (Serine 473) phosphorylation, 15 minutes treatment, read-out: Schwann cells (SC) (ErbB3) Avg EC50
Report the value in nM with no unit label.

Asked: Query: EC50; subject: huNRG1(S177-F229) 6xHis: 6xHis-tagged NRG1 fragment S177-F229 without variant mutations (protein, 6xHis tag; huNRG1(S177-F229) 6xHis, 6xHis-tagged NRG1 fragment S177-F229 without variant mutations) SHLVKCAEKEKTFCVNGGECFMVKDLSNPSRYLCKCPNEFTGDRCQNYVMASFGGGGEGGGGAGGGGHHHHHH
Given back: 3.62

Asked: Sample huNRG1(S177-F229)(NRGE1D) (E47T_D48S_F49L_M50L) 6xHis: 6xHis-tagged NRG1 variant SEQ ID NO:129 (protein, 6xHis tag; huNRG1(S177-F229)(NRGE1D) (E47T_D48S_F49L_M50L) 6xHis) SHLVKCGESHKSFCVNGGECYMVEGSSIPSRYLCKCPNEFTGDRCQTSLLASFGGGGEGGGGAGGGGHHHHHH — what was its EC50?
Given back: 10000

Asked: Given huNRG1(S177-S228)(NRGE1C)::3x(G4Q)::huFcSEFL2 (Pb): Fc fusion of NRG1 variant SEQ ID NO:116 (protein, huNRG1(S177-S228)(NRGE1C)::3x(G4Q)::huFcSEFL2 (Pb)) STYRCVSVLTVLHQDWLNGKEYKCKVSNKALPAPIEKTISKAKGQPREPQVYTLPPSREEMTKNQVSLTCLVKGFYPSDIAVEWESNGQPENNYKTTPPVLDSDGSFFLYSKLTVDKSRWQQGNVFSCSVMHEALHNHYTQKSLSLSPGK , state its recorded EC50.
Given back: 783
